Data credit: patent US20250041429A1

target-or-system: BTK protein (Homo sapiens, UniProt Q06187)
Construct: endogenous in cells; host or cells: TMD-8 cells
Sequence (Q06187 whole entry): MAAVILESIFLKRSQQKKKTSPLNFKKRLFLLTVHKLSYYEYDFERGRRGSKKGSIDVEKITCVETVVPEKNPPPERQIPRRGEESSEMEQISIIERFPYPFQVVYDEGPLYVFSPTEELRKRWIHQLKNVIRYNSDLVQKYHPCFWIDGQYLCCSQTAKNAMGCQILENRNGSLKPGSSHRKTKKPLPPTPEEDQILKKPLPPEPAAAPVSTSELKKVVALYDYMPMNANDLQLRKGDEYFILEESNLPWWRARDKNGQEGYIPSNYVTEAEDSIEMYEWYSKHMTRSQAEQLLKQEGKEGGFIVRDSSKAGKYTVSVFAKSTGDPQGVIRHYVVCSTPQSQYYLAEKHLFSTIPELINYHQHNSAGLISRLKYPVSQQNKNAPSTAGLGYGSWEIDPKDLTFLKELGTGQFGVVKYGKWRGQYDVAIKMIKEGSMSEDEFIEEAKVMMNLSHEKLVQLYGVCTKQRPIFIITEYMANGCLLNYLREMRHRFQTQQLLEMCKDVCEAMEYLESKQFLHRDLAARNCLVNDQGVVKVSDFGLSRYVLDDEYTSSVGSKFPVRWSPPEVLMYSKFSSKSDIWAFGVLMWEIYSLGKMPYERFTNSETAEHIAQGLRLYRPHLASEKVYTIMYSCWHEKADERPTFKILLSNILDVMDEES
experimental-details: Measurement of BTK protein degradation ability in TMD-8 cells (Western blotting)
Type: cell-based
study-conditions: compound 1 nM, harvested after 24 hours
We label by threshold. Values of BTK degradation (%) 1 nM strictly beneath 60% are Met. Values of 60% and up are Not met.

molecule="Cc1cc(-c2ccnc(Nc3ccc(N4CCN(CC5CN(C(=O)c6cccc(NC7CCC(=O)NC7=O)c6)C5)CC4)cc3)n2)ccc1CNC(=O)c1cnn(C(C)(C)C)c1 (centres unmarked)" classification="Not met"
molecule="Cc1cc(-c2ccnc(Nc3ccc(C4CCN(CC5CN(c6ccc7c(c6)C(=O)N(C6CCC(=O)NC6=O)C7=O)C5)CC4)cc3)n2)ccc1CNC(=O)c1cn(C(C)(C)C)nn1 (centres unmarked)" classification=Met
molecule="Cc1cc(-c2ccnc(Nc3ccc(N4CCN(CC5CCN(c6cccc(NC7CCC(=O)NC7=O)c6)CC5)CC4)cc3)n2)ccc1CNC(=O)c1cnn(C(C)C)c1 (centres unmarked)" classification=Met
molecule=Cc1cc(-c2ccnc(Nc3ccc(N4CCN(CC5CCN(c6ccc(N7CCC(=O)NC7=O)cc6F)CC5)CC4)cc3)n2)ccc1CNC(=O)c1cn(C(C)(C)C)nn1 classification=Met

* * *

As shown below, each of these molecules has a reported BTK degradation (%) 10 nM value.
target-or-system: BTK protein (Homo sapiens)
Construct: endogenous in cells; host or cells: TMD-8 cells
experimental-details: Measurement of BTK protein degradation ability in TMD-8 cells (Western blotting)
Assay type: cell-based
study-conditions: compound 10 nM, harvested after 24 hours
property-label: BTK degradation (%) 10 nM

molecule="Cc1cc(-c2ccnc(Nc3ccc(N4CCN(CC5CCN(C(=O)c6cccc(NC7CCC(=O)NC7=O)c6)CC5)CC4)cc3)n2)ccc1CNC(=O)c1cnn(C(C)(C)C)c1 (centres unmarked)" target_or_system="BTK protein (Homo sapiens)" test_result=94.5
molecule=Cc1cc(-c2ccnc(Nc3ccc(N4CCN(CC5CCN(c6cccc(N7CCC(=O)NC7=O)c6)CC5)CC4)cc3)n2)ccc1CNC(=O)c1cnn(C(C)C)c1 target_or_system="BTK protein (Homo sapiens)" test_result=98.0
molecule="Cc1cc(-c2ccnc(Nc3ccc(N4CCC(CN5CCC(c6ccc(OC7CCC(=O)NC7=O)cn6)CC5)CC4)cc3)n2)ccc1CNC(=O)N1CC(OC(C)C)C1 (centres unmarked)" target_or_system="BTK protein (Homo sapiens)" test_result=63.7
molecule="Cc1cc(-c2ccnc(Nc3cnn(C4CCN(CC5CCN(c6ccc7c(c6)C(=O)N(C6CCC(=O)NC6=O)C7=O)CC5)CC4)c3)n2)ccc1CNC(=O)N1CC(OC(C)C)C1 (centres unmarked)" target_or_system="BTK protein (Homo sapiens)" test_result=96.5
molecule="Cc1cc(-c2ccnc(Nc3ccc(CN4CCC(CN5CCC(c6ccc(NC7CCC(=O)NC7=O)cc6)CC5)CC4)cc3)n2)ccc1CNC(=O)c1cn(C(C)(C)C)nn1 (centres unmarked)" target_or_system="BTK protein (Homo sapiens)" test_result=88.5

* * *

target-or-system: BTK protein (Homo sapiens)
Construct: endogenous in cells; host or cells: TMD-8 cells
experimental-details: Measurement of BTK protein degradation ability in TMD-8 cells (Western blotting)
Format: cell-based
study-conditions: compound 1 nM, harvested after 24 hours
property-label: BTK degradation (%) 1 nM

compound="Cc1cc(-c2ccnc(Nc3ccc(N4CCC(C(=O)N5CCC(c6cccc(NC7CCC(=O)NC7=O)c6)CC5)CC4)cc3)n2)ccc1CNC(=O)N1CC(OC(C)C)C1 (stereo not drawn)" test_result=1.0
compound="Cc1cc(-c2ccnc(Nc3ccc(N4CCC(CN5CCC(c6ccc(NC7CCC(=O)NC7=O)cn6)CC5)CC4)cc3)n2)ccc1CNC(=O)N1CC(OC(C)C)C1 (stereo not drawn)" test_result=39.7
compound="Cc1cc(-c2ccnc(Nc3ccc(N4CCN(CC5CCN(C(=O)c6cccc(NC7CCC(=O)NC7=O)c6)CC5)CC4)cc3)n2)ccc1CNC(=O)c1cnn(C(C)(C)C)c1 (stereo not drawn)" test_result=67.5
